# PROTOCOL_NOTES: Selectivity index, ratio of IC50 for cytotoxicity against African green monkey Vero cells to IC50 for chloroquine-resistant Plasmodium falciparum W2
# Format: toxicity, cell-based
# CONDITION_LABEL: read-out: Ratio IC50
Listed here are compounds together with their documented selectivity ratio.
READOUT_LABEL: selectivity ratio

>>> reported_measurement("CCN1CCN(c2cc(C)nc(N(CCNc3ccnc4cc(Cl)ccc34)Cc3ccccn3)n2)CC1")
"> 273"
>>> reported_measurement("Cc1cc(N(CCCNc2ccnc3cc(Cl)ccc23)Cc2ccccn2)nc(N2CCCCC2)n1")
"> 11.6"
>>> reported_measurement("Cc1cc(N2CCCC2)nc(N(CCNc2ccnc3cc(Cl)ccc23)Cc2ccccn2)n1")
"> 11.7"
>>> reported_measurement("Cc1cc(N(CCCNc2ccnc3cc(Cl)ccc23)Cc2ccccn2)nc(N2CCOCC2)n1")
"> 18.5"
>>> reported_measurement("Cc1cc(N(CCNc2ccnc3cc(Cl)ccc23)Cc2ccccn2)nc(N2CCCC2)n1")
"> 70"
>>> reported_measurement("Cc1cc(N(CCNc2ccnc3cc(Cl)ccc23)Cc2ccccn2)nc(Cl)n1")
"> 22"
>>> reported_measurement("Cc1cc(N(CCCNc2ccnc3cc(Cl)ccc23)Cc2cccs2)nc(N2CCOCC2)n1")
22.7
>>> reported_measurement("Cc1cc(N(CCCNc2ccnc3cc(Cl)ccc23)Cc2cccs2)nc(N2CCCC2)n1")
"> 47.7"
>>> reported_measurement("Cc1cc(N(CCNc2ccnc3cc(Cl)ccc23)Cc2ccccn2)nc(N2CCOCC2)n1")
"> 18.5"
